Values compiled from patent US11840686B2.

- Test system: human PKK mRNA
- Assay explanation: Antisense inhibition of human PKK mRNA in HepaRG cells, 3,000 nM (Example 1)
- Assay type: cell-based
- Measurement conditions: Table 3; HepaRG cells, electroporation with 3,000 nM antisense oligonucleotide, approx. 24 hours; PKK mRNA by RT-PCR (RTS3454), relative to untreated control cells
Strand notation (5' to 3'): a small letter for the sugar, then the base; units joined by * are phosphorothioate-linked, units joined directly phosphodiester-linked; [ ] holds rarer units or linkages, { } end groups; capitals alone tell only the bases. e = 2'-O-(2-methoxyethyl) (MOE); [5mC] = 5-methylcytosine; d = 2'-deoxy (DNA)
Listed next: entries and their corresponding % inhibition.

| Substance | % inhibition [%] |
| --- | --- |
| 531154 (antisense eA*eT*eG*eA*eA*dG*dT*dA*dA*dG*dA*dT*dG*d[5mC]*dT*eT*eA*eA*eA*eA) [compound 531154] | 16 |
| 531106 (antisense eA*eA*eG*eA*eT*d[5mC]*dT*dA*dG*dA*dT*dA*dA*dT*dT*e[5mC]*eT*eT*eG*eT) [compound 531106] | 31 |
| 531093 (eT*eT*e[5mC]*eT*e[5mC]*d[5mC]*dT*dG*dG*d[5mC]*dT*d[5mC]*dA*dG*dA*eA*eG*e[5mC]*eT*e[5mC]; antisense) [compound 531093] | 60 |
